Biological target: T1, human CD4 on cells (SKW3 cells; human PBMCs) (human, UniProt P01730 26-458)
T1 construct: whole, on cells; SKW3 CD4 knockout cells served as the negative cell line for the WT vs KO ratios; also called hCD4; SKW3 WT
Test: SKW3 FACS binning; competitor OKT4a added after supernatant, anti-hu A647 secondary (background 5000, max binding 35000)
ENDPOINT: OKT4a anti-hu A647 signal in binning

A selection of reference data follows.
75110_01C18A (antibody, V domains shown, Tested as non-clonal hybridoma supernatant (AlivaMab Mouse Kappa), detected with anti-mouse Fc and anti-human kappa) VH: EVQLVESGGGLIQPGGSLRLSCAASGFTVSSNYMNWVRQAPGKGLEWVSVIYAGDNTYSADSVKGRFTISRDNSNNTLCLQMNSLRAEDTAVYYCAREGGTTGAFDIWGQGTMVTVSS VL: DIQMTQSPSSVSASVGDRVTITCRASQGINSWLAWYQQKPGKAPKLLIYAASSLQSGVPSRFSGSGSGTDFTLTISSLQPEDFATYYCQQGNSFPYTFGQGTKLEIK = 36200
75110_05A11A (antibody, V domains shown, Tested as non-clonal hybridoma supernatant (AlivaMab Mouse Kappa), detected with anti-mouse Fc and anti-human kappa) VH: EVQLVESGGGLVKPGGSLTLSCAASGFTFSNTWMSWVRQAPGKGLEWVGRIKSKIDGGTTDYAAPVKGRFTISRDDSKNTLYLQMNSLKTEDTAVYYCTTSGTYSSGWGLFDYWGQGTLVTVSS VL: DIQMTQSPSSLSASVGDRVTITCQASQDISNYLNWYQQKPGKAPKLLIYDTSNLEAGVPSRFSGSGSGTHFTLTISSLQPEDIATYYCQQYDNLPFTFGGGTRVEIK = 35000
75110_05E05A (antibody, V domains shown, Tested as non-clonal hybridoma supernatant (AlivaMab Mouse Kappa), detected with anti-mouse Fc and anti-human kappa) VH: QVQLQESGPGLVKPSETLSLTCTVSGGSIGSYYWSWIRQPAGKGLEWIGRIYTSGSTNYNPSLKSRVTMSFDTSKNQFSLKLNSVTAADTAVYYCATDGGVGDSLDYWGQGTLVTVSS VL: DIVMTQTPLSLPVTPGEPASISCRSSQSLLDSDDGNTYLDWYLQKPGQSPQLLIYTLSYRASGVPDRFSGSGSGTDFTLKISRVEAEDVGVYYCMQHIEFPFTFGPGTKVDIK = 35500
75110_04H17A (antibody, V domains shown, Tested as non-clonal hybridoma supernatant (AlivaMab Mouse Kappa), detected with anti-mouse Fc and anti-human kappa) VH: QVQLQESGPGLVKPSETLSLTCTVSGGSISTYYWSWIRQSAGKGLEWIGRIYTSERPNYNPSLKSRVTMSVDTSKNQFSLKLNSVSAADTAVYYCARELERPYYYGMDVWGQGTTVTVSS VL: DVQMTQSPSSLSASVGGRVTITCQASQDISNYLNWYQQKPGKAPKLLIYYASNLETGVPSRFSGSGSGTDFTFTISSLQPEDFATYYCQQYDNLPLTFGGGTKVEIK = 34000

Lookup result for 75110_07J24A (antibody, V domains shown, Tested as non-clonal hybridoma supernatant (AlivaMab Mouse Kappa), detected with anti-mouse Fc and anti-human kappa) VH: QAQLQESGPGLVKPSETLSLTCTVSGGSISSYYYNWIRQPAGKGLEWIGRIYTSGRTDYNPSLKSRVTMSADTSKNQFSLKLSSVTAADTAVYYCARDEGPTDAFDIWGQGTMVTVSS VL: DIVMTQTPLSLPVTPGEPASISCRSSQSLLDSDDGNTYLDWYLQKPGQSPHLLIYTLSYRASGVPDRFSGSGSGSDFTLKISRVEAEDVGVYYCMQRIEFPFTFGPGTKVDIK ; measured OKT4a anti-hu A647 signal in binning: 33800

Given item 75110_02I18A (antibody, V domains shown, Tested as non-clonal hybridoma supernatant (AlivaMab Mouse Kappa), detected with anti-mouse Fc and anti-human kappa) VH: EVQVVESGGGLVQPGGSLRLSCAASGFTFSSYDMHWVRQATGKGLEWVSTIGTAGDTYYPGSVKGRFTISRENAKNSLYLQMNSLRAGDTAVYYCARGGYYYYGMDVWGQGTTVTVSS VL: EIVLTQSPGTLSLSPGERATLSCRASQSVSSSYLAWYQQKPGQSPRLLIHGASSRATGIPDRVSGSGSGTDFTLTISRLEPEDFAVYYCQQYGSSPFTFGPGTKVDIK , the value recorded as its OKT4a anti-hu A647 signal in binning is 44800

OKT4a anti-hu A647 signal in binning in this record for 75110_08A13A (antibody, V domains shown, Tested as non-clonal hybridoma supernatant (AlivaMab Mouse Kappa), detected with anti-mouse Fc and anti-human kappa) VH: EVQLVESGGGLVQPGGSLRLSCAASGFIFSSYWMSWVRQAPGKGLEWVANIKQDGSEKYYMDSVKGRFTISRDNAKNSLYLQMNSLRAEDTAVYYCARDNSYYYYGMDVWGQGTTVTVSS VL: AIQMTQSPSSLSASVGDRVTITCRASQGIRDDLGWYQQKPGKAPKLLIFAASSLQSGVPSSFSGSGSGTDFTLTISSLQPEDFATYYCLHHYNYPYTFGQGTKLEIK : 42000

response.value for 75110_05E13A (antibody, V domains shown, Tested as non-clonal hybridoma supernatant (AlivaMab Mouse Kappa), detected with anti-mouse Fc and anti-human kappa) VH: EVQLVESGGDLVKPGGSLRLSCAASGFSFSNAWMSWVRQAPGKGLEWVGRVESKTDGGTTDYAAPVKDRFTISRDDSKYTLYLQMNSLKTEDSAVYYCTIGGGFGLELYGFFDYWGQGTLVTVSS VL: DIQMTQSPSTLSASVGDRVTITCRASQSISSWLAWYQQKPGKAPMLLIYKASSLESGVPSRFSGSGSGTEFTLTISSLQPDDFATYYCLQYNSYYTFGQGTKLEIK (field: OKT4a anti-hu A647 signal in binning) = 36400

# OKT4a anti-hu A647 signal in binning (binder: 75110_02E22A (antibody, V domains shown, Tested as non-clonal hybridoma supernatant (AlivaMab Mouse Kappa), detected with anti-mouse Fc and anti-human kappa) VH: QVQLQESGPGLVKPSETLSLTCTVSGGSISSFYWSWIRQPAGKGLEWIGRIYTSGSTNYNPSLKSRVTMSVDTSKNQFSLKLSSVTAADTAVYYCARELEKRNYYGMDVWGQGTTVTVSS VL: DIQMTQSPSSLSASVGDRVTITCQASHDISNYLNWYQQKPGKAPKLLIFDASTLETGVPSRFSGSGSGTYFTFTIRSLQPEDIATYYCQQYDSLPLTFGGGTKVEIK ) is 41900

Source of measurements: patent US20220112288A1
